molecular target: BSA (Bos taurus); construct: purchased Aladdin's Reagent Co., Ltd. (Shanghai, China); test: Fluorescence quenching of BSA (Stern-Volmer, double-log, van't Hoff); type: binding, bovine; conditions: T 298 K, τ0 = 10^−8 s
Sequence (P02769 25-607): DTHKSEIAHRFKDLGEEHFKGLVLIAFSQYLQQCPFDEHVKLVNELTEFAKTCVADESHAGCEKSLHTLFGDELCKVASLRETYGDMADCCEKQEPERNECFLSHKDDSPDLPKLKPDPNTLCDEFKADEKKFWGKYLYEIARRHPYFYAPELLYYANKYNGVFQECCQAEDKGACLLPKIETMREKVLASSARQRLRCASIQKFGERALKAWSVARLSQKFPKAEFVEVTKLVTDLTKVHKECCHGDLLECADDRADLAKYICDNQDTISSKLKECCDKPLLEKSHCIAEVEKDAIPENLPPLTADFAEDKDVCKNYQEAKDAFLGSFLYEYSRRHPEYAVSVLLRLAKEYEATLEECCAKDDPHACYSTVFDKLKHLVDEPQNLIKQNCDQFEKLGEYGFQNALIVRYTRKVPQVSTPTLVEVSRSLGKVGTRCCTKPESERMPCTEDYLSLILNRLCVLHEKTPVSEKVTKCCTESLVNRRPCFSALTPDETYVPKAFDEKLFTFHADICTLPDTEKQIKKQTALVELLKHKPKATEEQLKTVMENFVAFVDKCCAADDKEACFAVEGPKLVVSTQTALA
Quantity name: K q (quenching rate constant)

// known answers, use as guide
INSERT INTO assay_data (compound, quantity_name, reported_value) VALUES
  ('COC(=O)C(NC(=O)COc1cc(O)c2c(=O)c(-c3ccc(O)cc3)coc2c1)C(C)C (centres unmarked)', 'K q (quenching rate constant)', '6.2575 10^12 M^−1 s^−1'),
  ('O=c1c(-c2ccc(O)cc2)coc2cc(O)cc(O)c12', 'K q (quenching rate constant)', '6.2416 10^12 M^−1 s^−1'),
  ('COC(=O)CNC(=O)COc1cc(O)c2c(=O)c(-c3ccc(O)cc3)coc2c1', 'K q (quenching rate constant)', '9.3690 10^12 M^−1 s^−1'),
  ('COC(=O)C(CC(C)C)NC(=O)COc1cc(O)c2c(=O)c(-c3ccc(O)cc3)coc2c1 (centres unmarked)', 'K q (quenching rate constant)', '4.9339 10^12 M^−1 s^−1');

Lookup: Identify the reported K q (quenching rate constant) for the following entry. COC(=O)C(C)NC(=O)COc1cc(O)c2c(=O)c(-c3ccc(O)cc3)coc2c1 (centres unmarked)
Found: 8.0160 10^12 M^−1 s^−1
